Tested on: ABL1 (human), P00519 [Q252H]
Experiment: KINOMEscan competition binding
Conditions: compound 10.0 µM
measured metric: kinase still bound, per cent of control (%)
Hi! Could you send only the number? It should be in %, unit omitted.

CCN(CC)CCCCNc1ncc2cc(-c3cc(OC)cc(OC)c3)c(NC(=O)NC(C)(C)C)nc2n1; 100
CS(=O)(=O)N1CCN(Cc2cc3nc(-c4cccc5[nH]ncc45)nc(N4CCOCC4)c3s2)CC1; 100
COc1cc(N2CCC(C(N)=O)CC2)ccc1Nc1nc(N)c(Cl)c(Nc2ccccc2S(=O)(=O)C(C)C)n1; 100
COc1ccc(N(C(=O)Oc2cc(C(=O)Nc3cccc(C(F)(F)F)c3)ccc2C)c2ccnc(Nc3ccc(N4CCN(C)CC4)cc3)n2)c(OC)c1; 1.8
CNC(=O)c1ccc(Nc2cc(Nc3ccccc3S(=O)(=O)C(C)C)c3cc[nH]c3n2)nc1; 11
Cc1ccc(C(=O)Nc2cccc(C(F)(F)F)c2)cc1Nc1cncc(C(N)=O)c1; 100
CCN(CCO)CCCOc1ccc2c(Nc3cc(CC(=O)Nc4cccc(F)c4)[nH]n3)ncnc2c1; 32

// next entry
kinase still bound, per cent of control of CCN(CC)CCCCNc1ncc2c(n1)N(C)C(=O)N(c1c(Cl)c(OC)cc(OC)c1Cl)C2 on ABL1 (human), P00519 [Q252H]?
100

Where do these numbers come from? They come from the kinase profiling compilation of Christmann-Franck et al. (2016).
